# Target Of Assay: CYP3A4 (Homo sapiens, UniProt P08684)
# Sequence (P08684 whole entry): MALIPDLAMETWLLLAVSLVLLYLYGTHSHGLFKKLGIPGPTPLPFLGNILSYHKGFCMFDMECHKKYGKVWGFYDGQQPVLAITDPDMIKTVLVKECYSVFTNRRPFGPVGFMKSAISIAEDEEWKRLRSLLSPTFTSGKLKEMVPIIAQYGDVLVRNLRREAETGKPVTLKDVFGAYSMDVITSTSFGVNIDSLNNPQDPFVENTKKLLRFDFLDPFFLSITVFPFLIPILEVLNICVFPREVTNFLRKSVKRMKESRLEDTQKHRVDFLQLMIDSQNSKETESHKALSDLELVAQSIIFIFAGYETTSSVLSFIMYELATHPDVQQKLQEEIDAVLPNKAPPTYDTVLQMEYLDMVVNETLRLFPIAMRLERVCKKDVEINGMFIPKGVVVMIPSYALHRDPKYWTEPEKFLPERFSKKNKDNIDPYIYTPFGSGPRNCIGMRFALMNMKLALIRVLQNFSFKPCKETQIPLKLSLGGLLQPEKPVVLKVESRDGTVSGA
# Method: Inhibition of CYP3A4 (unknown origin) using midazolam substrate at 10 uM
# Type: ADME
# Reported Conditions: probe midazolam
Measurement Name: inhibition at 10 µM

Please review the following examples before continuing.
1. Cc1ccc([C@H]2CCNC[C@@H]2COc2cc(F)c(S(=O)(=O)Nc3ncns3)cc2F)cc1 (relative stereo)	95%
2. O=S(=O)(Nc1nncs1)c1cc(F)c(OC[C@@H]2CNCC[C@H]2c2ccc(Cl)cc2)cc1F (relative stereo)	30%
3. O=S(=O)(Nc1ccncn1)c1cc(F)c(OC[C@@H]2CNCC[C@H]2c2ccc(Cl)cc2)cc1F (relative stereo)	57%

Query compound follows.
// recorded inhibition at 10 µM for O=S(=O)(Nc1ncns1)c1cc(F)c(OC[C@@H]2CCCC[C@H]2c2ccc(Cl)cc2)cc1F (relative stereo) : 99%
